For each of the molecules below, state its GI50.
System: UACC-257
Test: NCI tumour cell line growth inhibition, 48 h
Activity calls are given as the source filed them. Cut-off read from the data, not from the text of the source: active = GI50 up to about 1.1 µM and inactive = higher.

Identify measured GI50 obtained with UACC-257 for CC1NOC(NS(=O)(=O)c2ccc(/N=N/c3c(O)c(C(=O)O)cc4ccccc34)cc2)C1C (stereo not given) .
> 100 µM (inactive)

Identify measured GI50 obtained with UACC-257 for O=C1c2c(O)cccc2C(C2OC(CO)C(O)C(O)C2O)c2cc(CO)cc(O)c21 (stereo not given) .
> 100 µM (inactive)

Identify measured GI50 obtained with UACC-257 for "COC(=O)c1c(C(=O)OC)c2ccccn2c1-c1cc(C)cc2c1C(=O)C=CC2=O" .
3.43 µM (inactive)

Identify measured GI50 obtained with UACC-257 for COC(=O)c1c2c(cc3c1CC1(Cc4ccc(C(C)=O)cc4C1)C3)CCC2 (stereo not given) .
25.2 µM (inactive)

Identify measured GI50 obtained with UACC-257 for "COc1cccc(O)c1-c1cc(=O)c2c(O)c(OC)c(OC)c(OC)c2o1" .
27 µM (inactive)

Identify measured GI50 obtained with UACC-257 for Cc1c2c(OCC3CCCCO3)nn(C)c(=O)c2c(C)n1-c1ccccc1 (stereo not given) .
18.6 µM (inactive)

Identify measured GI50 obtained with UACC-257 for CCCC(=O)OC1CC(n2cc(F)c(=O)[nH]c2=O)OC1CO (stereo not given) .
> 4.49 µM (inactive)

Identify measured GI50 obtained with UACC-257 for C/C(=N\NS(=O)(=O)c1ccc(C)cc1)C(CN(C)C)C(c1ccccc1)c1c(O)c2ccccc2oc1=O (stereo not given) .
> 100 µM (inactive)

Identify measured GI50 obtained with UACC-257 for CC1(c2cccs2)CC(c2cccs2)=C(C#N)C(=C(C#N)C#N)N1 (stereo not given) .
17.6 µM (inactive)

Identify measured GI50 obtained with UACC-257 for "C(=NCCN1CCOCC1)=NC1CCCCC1" .
> 100 µM (inactive)

* * *

Tested on: CCRF-CEM
Assay: NCI tumour cell line growth inhibition, 48 h
Active and inactive are the calls of the source. No stated cut-off is given here; in the data, active = GI50 up to about 1.1 µM and inactive = higher.
// allowed return values: active, inactive

Dear colleague, could you share the recorded outcome for O=C(C1OC1c1ccc(O)cc1)C12CC3CC(CC(C3)C1)C2 (stereo not drawn) when you have a moment?
inactive

Dear colleague, could you share the recorded outcome for Cc1cc(Br)cc(C)c1NC(=O)C(=O)C(C(=O)c1ccc(Cl)c(Cl)c1)C1OC(=O)c2ccccc21 (stereo not drawn) when you have a moment?
inactive

Dear colleague, could you share the recorded outcome for "CCN(CC)CCn1c(C(C)(C)C)nc2ccccc21" when you have a moment?
inactive

Dear colleague, could you share the recorded outcome for "COC(=O)Nc1nc2cc(NC(=O)c3cccs3)ccc2[nH]1" when you have a moment?
inactive

Dear colleague, could you share the recorded outcome for O=C1c2c(O)cccc2C(C2OC(CO)C(O)C(O)C2O)c2cc(CO)cc(O)c21 (stereo not drawn) when you have a moment?
inactive

Dear colleague, could you share the recorded outcome for "O=C1C(Cl)=C(Cl)C(=O)N1c1ccccc1Cl" when you have a moment?
inactive

Dear colleague, could you share the recorded outcome for CN1C(c2ccccc2)CC(=NO)CC1c1ccccc1 (stereo not drawn) when you have a moment?
inactive

Dear colleague, could you share the recorded outcome for "CCCC(=O)c1ccc2c(ccc(=O)n2C)c1" when you have a moment?
inactive

Dear colleague, could you share the recorded outcome for "O=C(O)CCC(=O)c1ccc2sc3ccccc3c2c1" when you have a moment?
active

Dear colleague, could you share the recorded outcome for "Cc1c(C#N)c(=N)oc2ccccc12" when you have a moment?
inactive

Dear colleague, could you share the recorded outcome for "Cc1ccc(-c2nc3cc(Cl)ccc3[nH]2)cc1" when you have a moment?
inactive

Dear colleague, could you share the recorded outcome for "Cc1cc2c(=O)n(-c3ccc(F)cc3)c(C)nc2c(C(=O)O)c1C" when you have a moment?
inactive

Dear colleague, could you share the recorded outcome for "NC(=O)N/N=C(\Cc1nc2ccc(C(=O)c3ccccc3)cc2nc1O)C(=O)Nc1ccc(Br)cc1" when you have a moment?
inactive

* * *

Test system: NCI-H522
Experiment: NCI tumour cell line growth inhibition, 48 h
Active and inactive are the calls of the source. Rule as the data show it: active = GI50 up to about 1.1 µM and inactive = higher.
Experimental readout: GI50

Give a short answer stating reported GI50 for "C/C(CC(=O)Nc1cccc(Cl)c1C)=N\N=C(N)N" .
> 100 µM (inactive)

Give a short answer stating reported GI50 for CCCCCCCCC1=CCC(CN(C)C)C1=O (stereo not given) .
16.7 µM (inactive)

Give a short answer stating reported GI50 for "ON/N=C/c1cc2c(cc1Br)OCO2" .
230 µM (inactive)

Give a short answer stating reported GI50 for "CCN1C=C/C(=C\C=C\c2cc[n+](CC)c3ccccc23)c2ccccc21" .
7.43 µM (inactive)

Give a short answer stating reported GI50 for "COc1cccc(NC(=S)Nn2c(C)nc3ccccc3c2=O)c1" .
> 100 µM (inactive)

Give a short answer stating reported GI50 for "Cc1nc(-n2nc(-c3ccccc3)cc2-c2ccccc2)sc1C(=O)/C=C/c1ccccc1" .
33.1 µM (inactive)

Give a short answer stating reported GI50 for "CCOc1nc(OCC)nc(-c2cccn2-c2ccccc2)n1" .
32.7 µM (inactive)

Give a short answer stating reported GI50 for COC(=O)CCC(C)[C@H]1CCC2C3C(C[C@H](OC(C)=O)[C@@]21C)[C@@]1(C)CCC2(C[C@H]1C[C@H]3OC(C)=O)OOC1(CCC(C(C)(C)C)CC1)OO2 (stereo not given in full) .
21 µM (inactive)

Give a short answer stating reported GI50 for "CCCCN(CCCC)C(=C(C(Cl)=C(Cl)Cl)[N+](=O)[O-])N(CCCC)CCCC" .
48.3 µM (inactive)

Give a short answer stating reported GI50 for "CC(C)c1cc(C(C)C)c(Cl)c(Cl)c1O.CC(C)c1cc(Cl)c(O)c(C(C)C)c1Cl" .
14 µM (inactive)

Give a short answer stating reported GI50 for C#CC1(O)CCC2[C@@H]3CCc4cc(Oc5nc(F)nc(-c6c7ccccc7c(SCC)n6CCC)n5)ccc4C3CC[C@@]21C (stereo not given in full) .
> 10 µM (inactive)

Give a short answer stating reported GI50 for "Cc1ccc(/C=c2\c(=O)[nH]c3nc4ccccc4c(=O)n23)cc1" .
29 µM (inactive)

Give a short answer stating reported GI50 for COc1cccc(O)c1-c1cc(=O)c2c(O)c(OC)c(OC)c(OC)c2o1 [SKULLCAPFLAVONE II] .
22.7 µM (inactive)

Give a short answer stating reported GI50 for "COc1ccccc1N1C(=O)CC(=O)N(C(=O)CCCCCCCCC(=O)N2C(=O)CC(=O)N(c3ccccc3OC)C2=S)C1=S" .
47.3 µM (inactive)

Give a short answer stating reported GI50 for Cc1c2c(OCC3CCCCO3)nn(C)c(=O)c2c(C)n1-c1ccccc1 (stereo not given) .
17 µM (inactive)

Give a short answer stating reported GI50 for "O=c1oc2cc(O)ccc2c2[nH]c3cc(O)ccc3c12" .
11.7 µM (inactive)

Give a short answer stating reported GI50 for C/C1=C\CC[C@@]2(C)O[C@@H]2C[C@@H]2[C@H](C/C(C)=C/CC1)OC(=O)C21CCN=N1 (stereo not given in full) .
72.4 µM (inactive)

Give a short answer stating reported GI50 for "O=c1c2sc(=S)n(-c3ccc(F)cc3)c2ncn1/N=C/c1ccc(F)cc1F" .
44.5 µM (inactive)

Give a short answer stating reported GI50 for "O=C(c1ccc(F)cc1)c1cccc(C(=O)c2ccc(F)cc2)n1" .
20.3 µM (inactive)

Give a short answer stating reported GI50 for CN1C(=O)c2ccccc2NC(=O)C12O[C@@H]2c1cccc(O)c1 (stereo not given in full) .
> 100 µM (inactive)
